Measured self-aminoacylation values are reported for all entries that follow.
- Tested on: biotinyl-Ile-oxazolone
- experiment.summary: self-aminoacylation, catalytic enhancement (BIO) (fold over background); higher = more active; k-Seq, kA / k0A0; sequences stand for … in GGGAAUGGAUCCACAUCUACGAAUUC…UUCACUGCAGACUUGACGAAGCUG
This sample holds only a part of the variants without activity.
Respond using a number only.

Example results:
seq.string: AUUACCUUGUUCAUCGAGUGA [Fam2.1 aminoacylation ribozyme variant]
tgt: biotinyl-Ile-oxazolone
parameter.measured: self-aminoacylation
test.value: 3.4
--
seq.string: CCACCCUUAAAGCAAUCGGUC [Fam1B.1 aminoacylation ribozyme variant]
tgt: biotinyl-Ile-oxazolone
parameter.measured: self-aminoacylation
test.value: 1.23
--
seq.string: AAGUAUGCUAAUAGUUGCAAG [Fam3.1 aminoacylation ribozyme variant]
tgt: biotinyl-Ile-oxazolone
parameter.measured: self-aminoacylation
test.value: 1.44
--
seq.string: CUUACCCUGGUCAUCUAGUGA [Fam2.1 aminoacylation ribozyme variant]
tgt: biotinyl-Ile-oxazolone
parameter.measured: self-aminoacylation
test.value: 3.75
--
seq.string: CCAUACUUAAAGCAAUCGGUC [Fam1B.1 aminoacylation ribozyme variant]
tgt: biotinyl-Ile-oxazolone
parameter.measured: self-aminoacylation
test.value: 0.92

Please examine the following record next.
What self-aminoacylation value was documented for this sequence, AAGUAAGCUAAUAGUCGCAAG [Fam3.1 aminoacylation ribozyme variant] ?
1.55
